The reported numbers originate from ChEMBL document CHEMBL1125209.

Recorded pEC50, one value per entry.
Species: Cavia porcellus
Assay: Effective concentration for hydrolysis of phosphoinositide in guinea pig pancreatic Acini
Assay type: functional
pEC50: −log10 of the molar value. *1 amine or outer side, *2 acyl side, *3 side chain or, on linkers, in order; H or OH if unused. Where a SMILES comes first, the peptide text is derived from it. Side-chain parts run from the residue outwards. The star is where a group is joined. NH(2-CF3-phenyl) = FC(F)(F)c1ccccc1N*; NH(4-Me-phenyl) = Cc1ccc(N*)cc1; Boc = CC(C)(C)OC(=O)*; NHcHex = C1CCC(N*)CC1; CO = O=C([*:1])[*:2]; NHtBu = CC(C)(C)N*
readout: pEC50

>  <molecule>
Cc1ccc(NC(=O)NCCCC[C@H](NC(=O)[C@H](Cc2c[nH]c3ccccc23)NC(=O)OC(C)(C)C)C(=O)N[C@@H](CC(=O)O)C(=O)N[C@@H](Cc2ccccc2)C(N)=O)cc1 (Boc-WK([CO-NH(4-Me-phenyl)])DF-NH2)

>  <observed-measurement>
6.85

$$$$
>  <molecule>
CC(C)(C)NC(=O)NCCCC[C@H](NC(=O)[C@H](Cc1c[nH]c2ccccc12)NC(=O)OC(C)(C)C)C(=O)N[C@@H](CC(=O)O)C(=O)N[C@@H](Cc1ccccc1)C(N)=O (Boc-WK([CO-NHtBu])DF-NH2)

>  <observed-measurement>
6.48

$$$$
>  <molecule>
CC(C)(C)OC(=O)N[C@@H](Cc1c[nH]c2ccccc12)C(=O)N[C@@H](CCCCNC(=O)Nc1ccccc1C(F)(F)F)C(=O)N[C@@H](CC(=O)O)C(=O)N[C@@H](Cc1ccccc1)C(N)=O (Boc-WK([CO-NH(2-CF3-phenyl)])DF-NH2)

>  <observed-measurement>
8.21

$$$$
>  <molecule>
CC(C)(C)OC(=O)N[C@@H](Cc1c[nH]c2ccccc12)C(=O)N[C@@H](CCCCNC(=O)NC1CCCCC1)C(=O)N[C@@H](CC(=O)O)C(=O)N[C@@H](Cc1ccccc1)C(N)=O (Boc-WK([CO-NHcHex])DF-NH2)

>  <observed-measurement>
7.26

$$$$

---

Species on record: Cavia porcellus
Test: Effective concentration for hydrolysis of phosphoinositide in guinea pig pancreatic Acini
Type: functional
*1 amine or outer side, *2 acyl side, *3 side chain or, on linkers, in order; H or OH if unused. Where a SMILES comes first, the peptide text is derived from it. Side-chain parts run from the residue outwards. The star is where a group is joined. βNA = c1ccc2cc(N*)ccc2c1; Boc = CC(C)(C)OC(=O)*; X1 = Clc1cccc(Cl)c1N*; CO = O=C([*:1])[*:2]; NHPh = c1ccc(N*)cc1
readout: EC50 (nM)

>  <compound>
CC(C)(C)OC(=O)N[C@@H](Cc1c[nH]c2ccccc12)C(=O)N[C@@H](CCCCNC(=O)Nc1ccccc1)C(=O)N[C@@H](CC(=O)O)C(=O)N[C@@H](Cc1ccccc1)C(N)=O (Boc-WK([CO-NHPh])DF-NH2)

>  <result-unit>
nM

>  <observed-measurement>
53

$$$$
>  <compound>
CC(C)(C)OC(=O)N[C@@H](Cc1c[nH]c2ccccc12)C(=O)N[C@@H](CCCCNC(=O)Nc1c(Cl)cccc1Cl)C(=O)N[C@@H](CC(=O)O)C(=O)N[C@@H](Cc1ccccc1)C(N)=O (Boc-WK([CO-X1])DF-NH2)

>  <result-unit>
nM

>  <observed-measurement>
310

$$$$
>  <compound>
CC(C)(C)OC(=O)N[C@@H](Cc1c[nH]c2ccccc12)C(=O)N[C@@H](CCCCNC(=O)Nc1ccc2ccccc2c1)C(=O)N[C@@H](CC(=O)O)C(=O)N[C@@H](Cc1ccccc1)C(N)=O (Boc-WK([CO-βNA])DF-NH2)

>  <result-unit>
nM

>  <observed-measurement>
140

$$$$
>  <compound>
CSCC[C@H](NC(=O)[C@H](Cc1ccc(OS(=O)(=O)O)cc1)NC(=O)[C@@H](N)CC(=O)O)C(=O)NCC(=O)N[C@@H](Cc1c[nH]c2ccccc12)C(=O)N[C@@H](CCSC)C(=O)N[C@@H](CC(=O)O)C(=O)N[C@@H](Cc1ccccc1)C(N)=O [SINCALIDE]

>  <result-unit>
nM

>  <observed-measurement>
1.2

$$$$
